Biological target: human recombinant Btk (Homo sapiens, UniProt Q06187)
Sequence (Q06187 whole entry): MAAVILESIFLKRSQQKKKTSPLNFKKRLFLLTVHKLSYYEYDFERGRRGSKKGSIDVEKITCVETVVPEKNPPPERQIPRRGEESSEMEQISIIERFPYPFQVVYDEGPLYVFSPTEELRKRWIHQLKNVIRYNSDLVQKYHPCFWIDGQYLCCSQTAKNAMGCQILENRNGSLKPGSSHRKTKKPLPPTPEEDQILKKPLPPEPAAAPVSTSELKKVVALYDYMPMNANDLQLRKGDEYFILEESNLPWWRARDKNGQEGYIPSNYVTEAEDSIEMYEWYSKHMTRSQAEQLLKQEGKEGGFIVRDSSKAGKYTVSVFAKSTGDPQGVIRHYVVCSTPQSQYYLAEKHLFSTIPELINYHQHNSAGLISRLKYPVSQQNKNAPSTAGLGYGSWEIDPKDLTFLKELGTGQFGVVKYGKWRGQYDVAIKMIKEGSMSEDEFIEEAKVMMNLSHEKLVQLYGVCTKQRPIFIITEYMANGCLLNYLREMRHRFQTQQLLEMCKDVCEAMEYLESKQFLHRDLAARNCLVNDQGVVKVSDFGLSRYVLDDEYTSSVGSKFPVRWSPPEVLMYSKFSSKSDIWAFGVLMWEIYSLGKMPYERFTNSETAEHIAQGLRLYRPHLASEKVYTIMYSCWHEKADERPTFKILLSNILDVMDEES
Experiment: Human Recombinant Btk Enzyme Assay (LLE_BTK)
pIC50: −log10 of the molar value.
RESULT TYPE: pIC50

- NC(=O)c1cc(F)c(N2CCC[C@@H](NC(=O)Nc3nccs3)C2)nc1Nc1ccc(C(=O)N2CCOCC2)cc1: 8.70
- CC(=O)c1ccccc1-c1ccc(C(N)=O)c(Nc2ccc(C(=O)N3CCOCC3)cc2)n1: 6.00
- CC(C)(C)OC(=O)N[C@@H]1CCCN(c2ccc(C(N)=O)c(Nc3ccccc3)n2)C1: 5.77
- NC(=O)c1cc(F)c(N2CCC[C@@H](NC(=O)c3ccccc3)C2)nc1Nc1ccc(N2CCS(=O)(=O)CC2)cc1: 8.15
- CCN1CCN(c2ccc(Nc3nc(N4CCC[C@@H](NC(=O)c5ccccc5)C4)ccc3C(N)=O)cc2)CC1: 8.40
- CC(C)N1CCN(c2ccc(Nc3nc(N4CCC[C@@H](NC(=O)c5ccccc5)C4)ccc3C(N)=O)cc2)CC1: 8.40
- COc1ccc([C@H](C)N[C@H]2CCC[C@H](c3nc(Nc4ccc(N5CCOCC5)cc4)c(C(N)=O)cc3F)C2)cc1: 5.89
- CN1CCC(C)(c2ccc(Nc3nc(N4CCC[C@@H](N5CCCC5=O)C4)c(F)cc3C(N)=O)cc2)CC1: 8.52
- CC(C)(C)OC(=O)N[C@@H]1CCN(c2ccc(C(N)=O)c(Nc3ccc(C(=O)N4CCOCC4)cc3)n2)C1: 6.12
- NC(=O)c1ccc(N2CC[C@@H](NC(=O)c3ccc(C(F)(F)F)cc3)C2)nc1Nc1ccc(C(=O)N2CCOCC2)cc1: 6.13
- CN1CCCC(c2ccc(Nc3nc(N4CCC[C@@H](NC(=O)Nc5nccs5)C4)c(F)cc3C(N)=O)cc2)C1 (stereo partly shown): 8.70
- NC(=O)c1ccc(-c2ccc(Cl)c(C(F)(F)F)c2)nc1Nc1ccc(C(=O)N2CCOCC2)cc1: 5.92
- COc1cc(Nc2nc(N3CCC[C@@H](NC(=O)c4ccccc4)C3)c(F)cc2C(N)=O)ccc1OCCNC1CC1: 6.14
